- System: TO-3-N3 (biotin conjugate)
- Assay Comment: pull-down binding Z-score (relative to library population); higher = stronger binding
- Measurement Conditions: RNA library: Library-2
Measured pull-down binding Z-score determines class: low = under -0.4, moderate = from -0.4 up to -0.1, high = -0.1 and over

Solved cases (5 shown):
Query block: For the record GCGGGAGCCAGGCCGC [hsa-mir-3185] , report the class its pull-down binding Z-score corresponds to.
Result block: moderate

Query block: Queued: GAUAACAACUUC [SHAPE_invitro_SARS-CoV-2_Motif_16]
Result block: high

Query block: Would you mind doing AACAGGACCUGUGCUCACUGGGGCCUGCA [hsa-mir-6797] as well?
Result block: high

Query block: Follow-up item: CUGUGGUGGCUGCUCAUGCACCACGG [hsa-mir-105-1]
Result block: low

Query block: Follow-up entry: CAGACGGCUUUCUCUCCGAAUGUCUG [hsa-mir-2276]
Result block: low

Others:
Query block: Categorize the following entry: UCUGUACCGUCUGCGGUAUGUGGA [DMSMaPseq_invitro_SARS-CoV-2_Motif_240]
Result block: low

Query block: Lookup GCGCGGCCAGAAACUGGCUGCGC [mismatch-GU]
Result block: high

Query block: Same again, this time with CUCCUUUGAUGGUUGCAUACAUGUUGGAG [IAV_invivo_PB2_1_Motif_8+IAV_invivo_PB2_1_Motif_8]
Result block: moderate

Query block: What do we get for UAGGUGGUCGAAGUCAUCCACA [hsa-mir-7153] ?
Result block: moderate

Query block: Then what about the sequence GGCAGGUGUGGUUGGAGGAAGCAGCCUGAACCUGCC [hsa-mir-6778] ?
Result block: moderate

* * *

This section presents sequences with their documented pull-down binding Z-score values.
- System: TO-3-N3 (biotin conjugate)
- Assay Comment: pull-down binding Z-score (relative to library population); higher = stronger binding
- Measurement Conditions: RNA library: Library-2
Enter a number only.

Query block: Dear colleague, I am looking for the recorded pull-down binding Z-score of the following sequence: ACUACUAUAGGCCGCUGGGAAGCAGU [hsa-mir-130b]
Result block: 1.04

* * *

- Tested on: TO-N3-2 (biotin conjugate)
- Assay Comment: pull-down binding Z-score (relative to library population); higher = stronger binding
- Measurement Conditions: RNA library: Library-2
# pull-down binding Z-score values compiled below
The answer should be written as a number, with no unit following it.

Query block: Name the reported pull-down binding Z-score value associated with the sequence UCCAGGAUCUGGGUUUUGAGGUCUUGG [hsa-mir-4309]
Result block: 0.345

Query block: Then this sequence: AAUGCUGUGUUUCUGUAUGGUAUU [hsa-mir-92a-1]
Result block: -0.268

Query block: What about CCUGUUUUACAAAUAAGGAAAUAAACUCAGG [hsa-mir-1321] ?
Result block: -1.08

Query block: What about this sequence? UGUAUAGUAUUAUUCAAUACC [hsa-mir-1912]
Result block: -0.694

Query block: Same thing, different sequence: GGAGCAGACAGACCCAACCUCAUGCUCC [hsa-mir-6763]
Result block: 0.247

Query block: Now this one: UCCACAAGGAGGGGAUGACCCUUGUGGG [hsa-mir-4437]
Result block: 1.37

***
Query block: Can you share its pull-down binding Z-score? I mean this sequence: GUCGUUGACAGGACACGAGUAACUCGUCUAUCUUCUGCAGGCUGC [SARS-CoV-2-Conserved-Structured-34_Interval-80-197_Motif_3]
Result block: 2.14

Query block: Follow-up item: CCUUCUAAUGAGUAUGCUUAACUUGGUAGAAGG [hsa-mir-3914-1]
Result block: -0.858

Query block: What do you get for CCAGGCCCCACGGAGAACCAGGGCACCUGG [hsa-mir-8058] ?
Result block: 0.492

Query block: Would you mind doing CACCAAAGGGUUAAGGGUUUGCUCUGGAG [hsa-mir-4653] as well?
Result block: 0.14

Query block: Now consider GGCGCGCGAGGCUCCAGGCUCC [hsa-mir-3197] and answer again.
Result block: 1.92
